Each entry below carries its recorded log10(solubility kinetic).
testParameters: buffer; pH 7.4; 200.0 µM
measuredProperty: log10(solubility kinetic) (log10 of the value in µg/mL)

smilesString | log10(solubility kinetic)
CCc1ccc(NC(=S)NCc2ccccc2)cc1 | 1.44
CCOC(=O)c1c(CC(C)C)csc1N | 0.32
COc1ccc(C)cc1S(=O)(=O)n1cnc2ccccc21 | 0.83
COc1cccc(-c2onc3ccc(C(C)=O)cc23)c1 | 0.46
COc1ccc(-c2nc(N)ncc2-c2ccccc2)c(O)c1 | -0.05
Nc1nc(C(F)(F)F)cc(=O)[nH]1 | 1.36
Cc1ccc(NS(=O)(=O)c2csc(C(N)=O)c2)cc1C | 1.28
NC(=O)c1ccc(N2CCN(S(=O)(=O)c3cccs3)CC2)c([N+](=O)[O-])c1 | 0.36
c1ccc(-c2nc(-c3ccc(-c4ccon4)s3)no2)cc1 | -0.22
CNC(=S)Nc1ccc(N2CCCC2)c(S(=O)(=O)Nc2ccc(OC)cc2)c1 | 1.54
O=C(NC(=O)c1ccccc1O)c1ccc(C(F)(F)F)cc1 | 0.36
Cc1ncc2c(n1)-c1cc(F)ccc1SC2 | 1.46
O=C(C#Cc1ccccc1)Nc1ccc(F)cc1 | 0.38
Cc1c(CCO)c(=O)n2c([nH]c3ccccc32)c1C#N | 1.28
COc1ccc(/C=C2\SC(=N)N(c3ccc(F)cc3)C2=O)cc1OC | 0.58
Cc1ccccc1C(=O)Nc1ccccc1C(=O)N1CCC(C)CC1 | 1.52
CCc1cccc(C)c1NC(=O)Cc1ccsc1 | 1.54
CCOC(=O)N1CCN(CC(=O)c2ccc(O)c(C)c2O)CC1 | 1.61
COc1cc2c(C#N)c(N3CCCCC3)nc(N)c2c(N)n1 | 1.60
Cc1cccc(N=C2NC(=O)C(CO)(CO)S2)c1 | 1.35
COc1ccc(OC)c(NC(=O)c2ccc3c(c2)OCO3)c1 | 0.67

###

testParameters: buffer; pH 7.4; 200.0 µM
measuredProperty: solubility kinetic

molecule | experimentalValue
Cc1onc(C(=O)N2CCN(c3ccccc3)CC2)c1[N+](=O)[O-] | > 47.4 µg/mL
O=C(O)CC1(CC(=O)Nc2cccc(C(F)(F)F)c2)CCCC1 | > 49.4 µg/mL
CCN1C(=O)c2cccc3c(N)ccc1c23 | > 31.8 µg/mL
CS(=O)(=O)N(CC(=O)NCC1CCCO1)c1cccc(Cl)c1 (stereo unspecified) | > 52 µg/mL
O=C(COC(=O)c1cnccn1)NC(=O)c1ccccc1 | > 42.8 µg/mL
O=C1NC(=O)N(c2ccc3c(c2)OCO3)C(=O)/C1=C\c1ccsc1 | > 51.3 µg/mL
O=C(NCCN1CCOCC1)NC1(C(F)(F)F)Oc2ccc(Cl)cc2O1 (stereo unspecified) | > 59.4 µg/mL
Cc1ccc(-c2c(C(=O)O)c(C(=O)O)c3n2CSC3)cc1 | > 45.5 µg/mL
CC(C)OC(=O)CSc1nc(Cc2ccccc2)nc2ccccc12 | < 0.4 µg/mL
CC1(C)CC(CC(=O)O)CC(C)(C)N1.Cl | > 35.4 µg/mL
Cc1cc(C)c(S(=O)(=O)NCCCn2ccnc2)cc1C | > 46.1 µg/mL
Cc1c(Cl)ccc(S(=O)(=O)NCCN2CCOCC2)c1Cl | > 53 µg/mL
COC(=O)CCC(=O)NNC(=O)Cc1ccccc1 | > 39.6 µg/mL
O=C(N/N=C/c1cccnc1)c1ccco1 | > 32.3 µg/mL
O=C(COC(=O)c1ccc[n+]([O-])c1)Nc1cc([N+](=O)[O-])ccc1Cl | > 52.8 µg/mL
Nc1c(C(=O)N2CCCCCC2)oc2ccccc12 | > 38.7 µg/mL
Cc1cc(C)cc(Oc2coc3c(CN(C)C)c(O)ccc3c2=O)c1 | > 50.9 µg/mL
S=C(NCC1CCCO1)NC1CCCCC1 (stereo unspecified) | > 36.4 µg/mL
Cc1cccc(C(CC(=O)N2CCCCC2)c2ccccc2)c1O (stereo unspecified) | 0.8 µg/mL
O=C(c1cc2ccccc2cc1O)N1CCN(c2ccccn2)CC1 | 32.9 µg/mL
CCOC(=O)/C(C#N)=C/c1cccn1-c1ccc(Cl)cc1 | < 0.3 µg/mL
C=CCn1cccc(C(=O)Nc2ccc(C)c(Cl)c2)c1=O | < 0.3 µg/mL
CCc1cc(=O)[nH]c(SCC(=O)NCC2CCCO2)n1 (stereo unspecified) | > 44.6 µg/mL
COCc1cc(=O)[nH]c(SCCS(=O)(=O)c2ccc(C)cc2)n1 | > 53.2 µg/mL
O=C(Oc1cccc(OC(=O)N2CCCCC2)c1)N1CCCCC1 | 20.8 µg/mL
Cc1ccc(OCC(=O)Nc2ccc3c(c2)C(=O)NC3=O)c(C)c1 | 0.6 µg/mL
CN(C)S(=O)(=O)c1cccc(C(=O)Nc2ccc(C(=O)Nc3cccc(S(N)(=O)=O)c3)cc2)c1 | 9 µg/mL
Cc1c(C(=O)O)nn(-c2cccc(C(F)(F)F)c2)c(=O)c1C#N | > 48.5 µg/mL
O=C(NCc1cccnc1)C(=O)Nc1nccs1 | 20.4 µg/mL
CN1CCC(C)(O)C2CCCCC21 (stereo unspecified) | > 27.5 µg/mL
Cc1cc(=O)n(Cc2ccc(OC(C)C)cc2)c(=S)[nH]1 | 13.8 µg/mL
O=C(Nc1ccccc1)C1CC(=O)n2c(nc3ccccc32)N1 (stereo unspecified) | 0.9 µg/mL
CCc1ccccc1NC(=O)c1cc(-c2ccc(OC)cc2)on1 | < 0.3 µg/mL
O=C(COc1ccccc1Cl)N1CCc2ccccc21 | 1.1 µg/mL
COC(CNc1nc(SC)nc2sc3c(c12)CCN(C)C3)OC | 52.4 µg/mL
O=S(=O)(Nc1ccon1)c1cc(Cl)ccc1Cl | 43.3 µg/mL

###

testParameters: buffer; pH 7.4; 200.0 µM
measuredProperty: log10(solubility kinetic) (log10 of the value in µg/mL)

molecule | log10(solubility kinetic)
O=C(OCC(=O)c1ccc[nH]1)c1ccc([N+](=O)[O-])cc1 | 1.12
Cc1onc(-c2ccccc2)c1C(=O)N=C(N)c1ccc(Cl)cc1 | 0.04
COc1ccccc1-n1c(O)c(/C=C2\C=Nc3ccccc32)c(=O)[nH]c1=O | 0.64
O=C(NC1CCCC1)c1cc(-c2ccccc2O)on1 | 0.34
O=C(/C=C/c1cccc(F)c1)Nc1cc(S(=O)(=O)N2CCOCC2)ccc1Cl | 0.80
CC(O)C(NC=C1C(=O)OC(C)(C)OC1=O)C(=O)O (centres undefined) | 1.60
Brc1cccc(CN2CCCCCC2)c1 | 1.18
O=C1NC(=S)N(C(=O)c2ccc(F)cc2)/C1=C/c1cccnc1 | 0.30
Cc1cc(OC(=O)c2cccc(Cl)c2)c([N+](=O)[O-])c(=O)[nH]1 | 1.61
O=S(=O)(NCc1ccccn1)c1ccc2ccccc2c1 | 1.57
Cc1cc(C)c(C)c(S(=O)(=O)N2CCN(C(=O)c3cc(S(=O)(=O)N4CCOCC4)ccc3F)CC2)c1C | 1.10
COC1C(C)=C(C)C(=O)N1Cc1ccccc1 (centres undefined) | 1.53
CSc1ccccc1NC(=O)c1ccccn1 | 1.47
Cc1oc(S(=O)(=O)N2CCCC2)cc1C(=O)Nc1ccc(F)cc1 | 0.18
CSc1ccccc1C(=O)NC1CCCc2ccccc21 (centres undefined) | 1.07
CN(C)S(=O)(=O)c1cccc(NC(=O)c2c[nH]c3ccccc23)c1 | 1.63
CC1CCN(C(=O)/C(=C\c2ccccc2)NC(=O)c2ccccc2)CC1 | 1.72
Cc1ccc(C2NC(=O)c3ccccc3O2)cc1 (centres undefined) | 1.03
COc1cccc(Oc2ccc(C(F)(F)F)cc2NC(=O)C2=COCCO2)c1 | 0.18
Cc1cc(C)c(C#N)c(OCc2ccc(Cl)nc2)n1 | 0.93

###

Each entry below carries its recorded solubility kinetic.
testParameters: buffer; pH 7.4; 200.0 µM

smilesString | unit | modifierSign | solubility kinetic
COC(=O)c1ccc(/C=C/C(=O)OCC(=O)c2ccc[nH]2)cc1 | mg/mL | = | 0.0068
Cc1cc(F)ccc1NC(=O)c1cnccn1 | mg/mL | = | 0.0297
O=[N+]([O-])c1ccc(N=Cc2c(O)ccc3ccccc23)cc1 | mg/mL | = | 0.0305
CSc1ccc(NC(=O)/C=C/C(=O)O)cc1 | mg/mL | = | 0.0308
COc1cccc2cc(C(N)=O)oc12 | mg/mL | > | 0.0287
Cc1cc(C(=O)O)c(C)n1C1CC1 | mg/mL | > | 0.0269

###

testParameters: buffer; pH 7.4; 200.0 µM
Each entry below carries its recorded solubility kinetic.

compound | solubility kinetic
Cc1nn(CCCC(=O)Nc2cccnc2)c(C)c1[N+](=O)[O-] | > 45.5 µg/mL
CCN(CC(=O)Nc1ccc2c(c1)OCCO2)C(=O)c1ccccc1Br | > 62.9 µg/mL
S=C(NCC1CCCO1)N1CCN(Cc2ccccc2Cl)CC1 (configuration not stated) | > 53.1 µg/mL
CCN(CC)S(=O)(=O)c1ccc(N)cc1 | > 34.2 µg/mL
CC(=O)c1ccc(S(=O)(=O)Nc2ccc(Cl)c(S(=O)(=O)N3CCCC3)c2)cc1 | > 66.4 µg/mL
CSc1ccc(S(=O)(=O)NCCCn2ccnc2)cc1 | > 46.7 µg/mL
COc1cc(/C=C/C(=O)OCC(=O)NCC2CCCCC2)ccc1O | > 52.1 µg/mL
CC(=O)Nc1ccc(C(=O)OCC(=O)N2CCCC2)cc1 | > 43.5 µg/mL
O=C(COC(=O)CCC(=O)c1ccc(F)cc1)NC1CCCCC1 | > 50.3 µg/mL
O=C(Cc1cccs1)NC(Cc1c[nH]c2ccccc12)C(=O)O (configuration not stated) | > 49.3 µg/mL
CCCN1CCN(C(=O)CCCNC(=O)c2ccc(Cl)cc2)CC1 | > 52.8 µg/mL
Cc1ccc(N(Cc2ccccc2)C(=O)CN2C(=O)NC3(CCCC3)C2=O)cc1 | > 58.7 µg/mL
CCc1c(C)nc(SCc2cccnc2)[nH]c1=O | > 39.2 µg/mL
COc1ccc(NC(=O)c2ccco2)c2ccccc12 | > 40.1 µg/mL
O=C(NC1CC1)C1CCN(c2nc3ccccc3s2)CC1 | > 45.2 µg/mL
CCc1nc(Nc2ccccc2OC)c2oc3ccccc3c2n1.Cl | < 0.3 µg/mL
CCN(CC)C(=O)c1c(C)[nH]c(=S)c(C#N)c1-c1ccco1 | > 47.3 µg/mL
Cn1cnnc1SCC(=O)Nc1ccc(OC(F)F)cc1 | > 47.1 µg/mL
O=C(Nc1ccccc1)Nc1ccc2ccccc2c1 | < 0.3 µg/mL
Clc1ccccc1OCCCCN1CCNCC1.O=C(O)C(=O)O | > 53.8 µg/mL
Cc1sc2ncnc(N)c2c1C | > 26.9 µg/mL
CS(=O)(=O)N1CCCC(C(=O)Nc2cccc(F)c2)C1 (configuration not stated) | > 45.1 µg/mL

Entry source: PubChem BioAssay AID1996
